Examples of compounds with documented activity coefficient follow.
# Procedure details: activity coefficient (dimensionless); of the first substance listed, at infinite dilution; xn = mol fraction of the nth substance listed
# Condition: 348.15 K; Liquid; Chromatography; x1 = 0
Lab note: jot down the number only; don't add units.

Some entries whose results are on file:
>  <Compound>
CC#N [acetonitrile] + CCCCCCn1cc[n+](C)c1.N#C[B-](C#N)(C#N)C#N

>  <Observed value>
0.396

$$$$
>  <Compound>
CCc1ccccc1 [ethylbenzene] + CCCCCCn1cc[n+](C)c1.N#C[B-](C#N)(C#N)C#N

>  <Observed value>
1.45

$$$$
>  <Compound>
CCO [ethanol] + CCCCCCn1cc[n+](C)c1.N#C[B-](C#N)(C#N)C#N

>  <Observed value>
0.855

$$$$
>  <Compound>
CC(=O)O [acetic acid] + CCCCCCn1cc[n+](C)c1.N#C[B-](C#N)(C#N)C#N

>  <Observed value>
0.311

$$$$
>  <Compound>
CCCC(C)=O [pentan-2-one] + CCCCCCn1cc[n+](C)c1.N#C[B-](C#N)(C#N)C#N

>  <Observed value>
0.544

$$$$

Exercise: Name the reported activity coefficient value associated with the compound CCCCC [pentane] + CCCCCCn1cc[n+](C)c1.N#C[B-](C#N)(C#N)C#N
Key: 7.61

Exercise: Note, next up: C1=CCCCC1 [cyclohexene] + CCCCCCn1cc[n+](C)c1.N#C[B-](C#N)(C#N)C#N
Key: 3.25

Exercise: Note, next up: C1CCCCCC1 [cycloheptane] + CCCCCCn1cc[n+](C)c1.N#C[B-](C#N)(C#N)C#N
Key: 6.76

---

# Procedure details: activity coefficient (dimensionless); of the first substance listed, at infinite dilution; xn = mol fraction of the nth substance listed
# Condition: 328.15 K; Liquid; Chromatography; x1 = 0
Observed property: activity coefficient

Exercise: Name the reported activity coefficient value associated with the molecule C=CCCCCC [1-heptene] + CCCCCCn1cc[n+](C)c1.N#C[B-](C#N)(C#N)C#N
Key: 8.06

Exercise: Note, next up: CCCC(C)=O [pentan-2-one] + CCCCCCn1cc[n+](C)c1.N#C[B-](C#N)(C#N)C#N
Key: 0.513

Exercise: Note, next up: C=CCCCCCC [oct-1-ene] + CCCCCCn1cc[n+](C)c1.N#C[B-](C#N)(C#N)C#N
Key: 11.1

Exercise: Note, next up: C1=CCCCC1 [cyclohexene] + CCCCCCn1cc[n+](C)c1.N#C[B-](C#N)(C#N)C#N
Key: 3.38

Exercise: Note, next up: CCC(C)(C)OC [2-methoxy-2-methylbutane] + CCCCCCn1cc[n+](C)c1.N#C[B-](C#N)(C#N)C#N
Key: 2.24

---

Examples of compounds with documented activity coefficient follow.
# Procedure details: activity coefficient (dimensionless); of the first substance listed, at infinite dilution; xn = mol fraction of the nth substance listed
# Condition: 338.15 K; Liquid; Chromatography; x1 = 0
Lab note: jot down the number only; don't add units.

Some entries whose results are on file:
>  <Compound>
CCCC(=O)OC [methyl butanoate] + CCCCCCn1cc[n+](C)c1.N#C[B-](C#N)(C#N)C#N

>  <activity coefficient>
0.701

$$$$
>  <Compound>
CCCCCC [hexane] + CCCCCCn1cc[n+](C)c1.N#C[B-](C#N)(C#N)C#N

>  <activity coefficient>
10.6

$$$$
>  <Compound>
CCCCCCCCC [nonane] + CCCCCCn1cc[n+](C)c1.N#C[B-](C#N)(C#N)C#N

>  <activity coefficient>
26.6

$$$$
>  <Compound>
c1ccccc1 [benzene] + CCCCCCn1cc[n+](C)c1.N#C[B-](C#N)(C#N)C#N

>  <activity coefficient>
0.758

$$$$

Exercise: Name the reported activity coefficient value associated with the compound C#CCCCC [1-hexyne] + CCCCCCn1cc[n+](C)c1.N#C[B-](C#N)(C#N)C#N
Key: 2.2

Exercise: Note, next up: COC(C)=O [methyl ethanoate] + CCCCCCn1cc[n+](C)c1.N#C[B-](C#N)(C#N)C#N
Key: 0.538

Exercise: Note, next up: CC#N [acetonitrile] + CCCCCCn1cc[n+](C)c1.N#C[B-](C#N)(C#N)C#N
Key: 0.394

Exercise: Note, next up: CCO [ethanol] + CCCCCCn1cc[n+](C)c1.N#C[B-](C#N)(C#N)C#N
Key: 0.912
